// reported Inhibition per item
# System: Plasmodium falciparum
# measurement protocol: GSK_TCMDC: Inhibition of Plasmodium falciparum Dd2 in whole red blood cells, using parasite LDH activity as an index of growth. Test compounds present at 2uM
# Format: functional
Report only the number, with the unit % understood.

Cc1ccc(CNC(=O)[C@H](Cc2ccccc2)Nc2ccnc(NCC3CCCCC3)n2)cc1.O=C(O)C(F)(F)F; 61

Inhibition recorded for this molecule, `O=C(NCCCCN1CCC(c2cccc3ccccc23)CC1)c1ccc(-c2ccc(C(F)(F)F)cn2)cc1` , is 36

The molecule identified as `Cc1cccc(CNc2nc(C)cc(NCCC(=O)NCCOc3ccccc3)n2)c1.O=C(O)C(F)(F)F` registered its Inhibition at 14

The reported value for `Cc1ccc2nc3c(cc(C(=O)NCc4ccccc4)c(=N)n3CCCn3ccnc3)c(=O)n2c1` in terms of Inhibition is 0

====

# Tested on: Plasmodium falciparum
# measurement protocol: GSK_TCMDC: Inhibition of Plasmodium falciparum 3D7 in whole red blood cells, using parasite LDH activity as an index of growth. Test compounds present at 2uM
# Format: functional
Inhibition values by entry
Write down the numeric answer in % and omit the unit.

O=C(Nc1ccsc1C(=O)NC1CCCCC1)c1ccc(F)cc1; 86
CC[C@H](NC(=O)c1c(N)c(-c2sccc2Cl)nc2ccccc12)c1ccccc1; 99
O=C(Nc1ccon1)c1cc(-c2cccnc2)nc2ccc(Br)cc12; 99

Now look at this one.
// recorded Inhibition for `COc1cc(F)c2ncc(F)c([C@@H](O)CN3CCC(NCc4cc5c(cn4)OCCO5)CC3)c2c1.Cl` : 100

====

Recorded Inhibition for the following compounds
# Test system: Plasmodium falciparum
# measurement protocol: GSK_TCMDC: Inhibition of Plasmodium falciparum Dd2 in whole red blood cells, using parasite LDH activity as an index of growth. Test compounds present at 2uM
# Format: functional
// return numeric value only (unit: %, not printed)

Example compounds with recorded Inhibition:
O=C(/C=C/c1ccc(Cl)c(Cl)c1)NCCCCCCN1CCN(C(=O)Nc2ccc(Cl)c(Cl)c2)CC1; 0
CCCCCCn1c(Sc2ccc(C#N)c([N+](=O)[O-])c2)nnc1-c1cccs1; 60
Nc1ncc(-c2ccccc2)cc1/C=C/c1cccnc1; 9
O=C(/C=C/c1ccc(Cl)c(Cl)c1)NCCCCCN1CCC(NC(=O)Nc2ccc(Cl)c(C(F)(F)F)c2)CC1; 19
CCc1cc(NCc2ccncc2)nc(Nc2ccc(F)cc2)n1; 17

Field Inhibition (system: Plasmodium falciparum) for entry CC(C)Oc1ccccc1-c1csc(C(=O)NCC2CCN(Cc3ccc(C(C)(C)C)cc3)C2)c1.O=C(O)C(F)(F)F (centres undefined) = 45

Hey, Plasmodium falciparum data for `N#Cc1cccc(NC(=O)Nc2cccc(-c3cccc(-c4nc5cc(C(F)(F)F)ccc5[nH]4)c3)c2)c1` : Inhibition came out at 99

Entry `O=C(/C=C/c1ccc(-c2nc3ccc(Cl)cc3[nH]2)cc1)NC1CCN(Cc2ccccc2)CC1` : Inhibition on Plasmodium falciparum = 92

Tested system Plasmodium falciparum; Inhibition recorded for `Cc1cc(N[C@@H](Cc2ccccc2)C(=O)NCCCOC(C)C)nc(NCCc2ccc(F)cc2)n1.O=C(O)C(F)(F)F` was 36

====

# Tested on: Plasmodium falciparum
# measurement protocol: GSK_TCMDC: Inhibition of Plasmodium falciparum Dd2 in whole red blood cells, using parasite LDH activity as an index of growth. Test compounds present at 2uM
# Type: functional
Below, each entry is listed with its recorded Inhibition.
Provide only the numeric value, understood in %.

Observe how each entry below is paired with its result.
CC(C)c1ccc(NC(=O)NC2CCN(CCCCCN(C)C(=O)/C=C/c3ccc(Cl)c(Cl)c3)C2)cc1 (centres undefined); 3
COc1ccc(NC(=O)c2ccc(Br)c(C)c2)cc1N1CCN(CCCc2c[nH]c3ccccc23)CC1; 64
Cc1cccc(C)c1N1CCN(C2CCC(NC(=O)c3cc4ccccc4[nH]3)CC2)CC1 (centres undefined); 64

Here's the next entry for you.
Per the records, this compound ( CCN1CCCC1CN(Cc1ccc(-c2ccc(C(F)(F)F)cc2)cc1)C(=O)Cn1c(CCc2cccc(F)c2F)nc(=O)c2ccccc21.O=C(O)C(O)C(O)C(=O)O (centres undefined) ) has Inhibition equal to 51

====

# Tested on: HepG2
# measurement protocol: GSK_TCMDC: Percent inhibition of human HepG2 cell line. Test compounds present at 10uM.
# Type: functional
# note: exactly 9% is not below, so it is False; use True for Inhibition strictly under it

Check out these entries, answers already filled in.
CCCOc1c(CCNCCCCNCCc2ccc3ccccc3c2OCCC)ccc2ccccc12.CS(=O)(=O)O; False
CN(C)S(=O)(=O)c1ccc(Nc2nc(NCCC3C=NC=N3)nc3cc[nH]c(=O)c23)cc1 (stereo unspecified); True
Cn1c2c(c3ccccc31)CN(CCC1(c3ccc(Cl)c(Cl)c3)CN(C(=O)c3ccccc3)CCO1)CC2 (stereo unspecified); False
CCN(CC)CCN(Cc1ccc(-c2ccc(Cl)s2)cc1)C(=O)Cn1c(CCc2cccc(F)c2F)nc(=O)c2ccccc21.O=C(O)C(O)C(O)C(=O)O; False
Br.CCOC(=O)c1cc(Cl)ccc1OCCCON1C(=N)N=C(N)NC1(C)C; False

Answer whether the compound `Cl.N#Cc1ccc(NC(=O)Nc2ccc3c(c2)CCN(C2CCC2)CC3)cc1` has Inhibition strictly less than 9%
True

Is 9% strictly greater than the compound's reported Inhibition? compound: `Cc1cc(CN2CCCN(c3ccc4c(c3)CCN(Cc3ccc(-c5ncc[nH]5)cc3)CC4)CC2)n(C)n1`
True

State whether 9% exceeds Inhibition recorded for `COc1cc2nc(C)nc(Nc3ccc(Oc4ccccc4)cc3)c2cc1OC.Cl` .
True

Answer whether the compound `O=C(Nc1ccc(Cn2ncc(N3CCCNCC3)c(Cl)c2=O)cc1)Nc1ccc(-c2ccccc2)cc1` has Inhibition strictly less than 9%
False

State whether 9% exceeds Inhibition recorded for `CN(C)c1cccc(-c2cnc3ccc(NCc4cccc(Cl)c4)nn23)c1` .
False

Determine if `COc1ccc(C(=O)CCC(=O)N(Cc2ccc(-c3ccc(CNCCc4ccc(S(C)(=O)=O)cc4)cn3)cc2)Cc2ccc3c(c2)OCO3)cc1F.O=C(O)C(F)(F)F` shows Inhibition strictly lower than 9%.
False

Determine if `CCCCOc1cc2ncc(C(=O)OCC)c(O)c2cc1OCCCC` shows Inhibition strictly lower than 9%.
True

API: query returns whether the compound falls strictly under 9% in Inhibition. Query: `COc1ccc(CNCCc2cccs2)cc1-c1ccc(OC)c(S(=O)(=O)NCCN2CCCC2)c1.O=C(O)C(F)(F)F`
False

====

# Test system: Plasmodium falciparum
# measurement protocol: GSK_TCMDC: Inhibition of Plasmodium falciparum Dd2 in whole red blood cells, using parasite LDH activity as an index of growth. Test compounds present at 2uM
# Format: functional
# Inhibition values compiled below
Kindly answer with a numeric value in %, unit omitted.

Consider the reported Inhibition for these compounds:
CCc1cc2c(=O)c(-c3nc(C)cs3)c([C@H](N)Cc3ccc(O)cc3)oc2cc1O.O=C(O)C(F)(F)F; 19
O=C(/C=C/c1ccc(Cl)c(Cl)c1)NCCCCN1CCCN(C(=O)Nc2ccc(C(F)(F)F)cc2)CC1; 0
COc1ccc(C(=O)NCC(C)(C)c2nc(-c3ccc(Cl)c(O)c3)c(-c3ccncc3)[nH]2)cc1OCCN(C(C)C)C(C)C.Cl; 96
N=C(N)c1ccc(C=Cc2ccc(C(=N)N)cc2O)cc1.O=S(=O)(O)CCO; 80
Cc1ccc(O)cc1Nc1ccnc2cc(-c3ccccc3)ccc12.Cl; 99

Lab note: measured Inhibition of `Cc1cccc2nc(-c3ccc(-c4cccc(CN5CCN(c6ccncc6)CC5)c4)s3)[nH]c12.O=C(O)C(F)(F)F` was 99

For record `CCCc1cc(Cc2cnc(N)nc2N)ccc1OCCCCCC(=O)OCC` the listed Inhibition is 1

The measured Inhibition associated with `N#Cc1cccc(CN2CCCN(c3ccc(NC(=O)c4cccs4)cc3)CC2)c1.O=C(O)C(F)(F)F` reads 95

// Inhibition value for `Cc1cc(NC2CCCC2)nc(Nc2ccc(F)cc2)n1` : 74

Notebook: CCNc1cc(C(=O)N[C@@H](Cc2ccccc2)[C@H](O)CNC2CCC(C(C)(C)C)CC2)cc(N2CCCC2=O)c1 (some centres undefined) , Inhibition read as 98

Lab note: `Fc1ccc(CNc2ncc(-c3ccsc3)c(-c3nccs3)n2)cc1` gave Inhibition of 77

Record Cc1ccc(-c2nc3cc(C(=O)NC4CCC(N5CCCc6ccc(C#N)cc6C5)CC4)ccc3[nH]2)cc1 (centres undefined) . Reported Inhibition: 49

Recorded Inhibition (compound `CC(C)(C)c1ccc(CN2CCC(NC(=O)c3ccc(-c4ccccc4F)s3)CC2)cc1.O=C(O)C(F)(F)F` ): 37

====

# System: Plasmodium falciparum
# measurement protocol: GSK_TCMDC: Inhibition of Plasmodium falciparum 3D7 in whole red blood cells, using parasite LDH activity as an index of growth. Test compounds present at 2uM
# Type: functional
The entries below are paired with their reported Inhibition.
Reply with just the number (in %).

CCNc1cc(C)nc(Nc2ccc(NC(=O)c3cccs3)cc2)n1; 100
Cl.NOCCCCOc1cc(Cl)c(Cl)cc1Cl; 92
CCOc1c(CNCCCNc2nc3ccccc3[nH]2)cc(I)cc1OC.Cl; 100
O=C(CCc1c[nH]cn1)Nc1ccc(-c2ccc(-c3nc4cc(F)ccc4[nH]3)cc2)cc1; 99
Cc1nc(O)c2c(ccc3ccc(CNc4ccc(C(=O)N[C@@H](CCC(=O)O)C(=O)O)cc4)cc32)n1; 89

Record `CC1(C)[C@H]2CC[C@@H](CNc3nc(NCC(=O)Nc4ccc5ccccc5c4)nc(N4CCC(N5CCCC5)CC4)n3)[C@@H]1C2` , field Inhibition: 93

# Inhibition (compound: `c1ccc2[nH]c(CN(Cc3nc4ccccc4[nH]3)Cc3nc4ccccc4[nH]3)nc2c1` ) is 81

Record `CC(C)Nc1cc(C(=O)N[C@@H](Cc2ccccc2)[C@H](O)CNC2CCOCC2)c(F)c(N2CCCCS2(=O)=O)c1.O=CO` . Reported Inhibition: 98

The value of Inhibition measured for the compound `CCCN(C(=O)c1ccccc1C)c1nnc(-c2cccc(C)c2)s1` turned out to be 91

Sample CCCCN(CCCC)CCC(O)C(=Cc1ccc(Cl)cc1Cl)c1ccc(C(F)(F)F)cc1N (stereo not drawn) ; Inhibition observed: 100

Inhibition reading for `CS(=O)(=O)CCNCc1ccc(-c2cc3c(Nc4ccc(OCc5cccc(F)c5)c(Cl)c4)ncnc3s2)[nH]1` : 99

Given item `COc1ccc(CCN(C)CCOc2ccc(NC(=O)COc3ccc4sc5ccccc5c(=O)c4c3)cc2)cc1OC` , the value recorded as its Inhibition is 100

The reported measurements were obtained from ChEMBL document CHEMBL1157539.
